Hey, just so you know, these numbers are from the supplement of paper PMC10065799.

# target or system: FGFR1 (UniProt P11362)
# Sequence (P11362 whole entry, looked up): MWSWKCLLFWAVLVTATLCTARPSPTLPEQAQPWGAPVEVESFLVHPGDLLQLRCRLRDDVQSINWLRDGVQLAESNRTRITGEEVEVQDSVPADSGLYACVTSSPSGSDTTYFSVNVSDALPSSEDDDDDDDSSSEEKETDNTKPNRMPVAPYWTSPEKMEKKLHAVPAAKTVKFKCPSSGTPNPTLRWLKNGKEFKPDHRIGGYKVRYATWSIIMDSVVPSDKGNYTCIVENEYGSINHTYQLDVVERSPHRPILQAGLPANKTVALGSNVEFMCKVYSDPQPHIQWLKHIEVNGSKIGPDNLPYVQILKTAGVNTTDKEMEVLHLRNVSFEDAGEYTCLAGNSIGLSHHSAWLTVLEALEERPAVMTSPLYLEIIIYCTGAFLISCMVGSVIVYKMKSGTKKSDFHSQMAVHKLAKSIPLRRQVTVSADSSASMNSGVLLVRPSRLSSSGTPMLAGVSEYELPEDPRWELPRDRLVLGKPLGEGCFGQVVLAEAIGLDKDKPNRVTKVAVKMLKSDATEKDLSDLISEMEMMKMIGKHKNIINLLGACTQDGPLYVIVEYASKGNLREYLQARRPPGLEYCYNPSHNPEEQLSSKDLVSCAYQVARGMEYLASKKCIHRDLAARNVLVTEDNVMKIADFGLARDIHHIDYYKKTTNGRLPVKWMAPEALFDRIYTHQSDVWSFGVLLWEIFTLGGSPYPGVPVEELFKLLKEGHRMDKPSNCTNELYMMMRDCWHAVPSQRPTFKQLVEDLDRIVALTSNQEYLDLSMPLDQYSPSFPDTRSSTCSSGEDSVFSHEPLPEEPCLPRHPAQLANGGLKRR
# assay method text: phosphorylation enrichment, bacterial display (enrichment ratio); higher = better substrate or ligand; peptides without Tyr show the background;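 further: 11-residue human phosphosite peptides and single-mutation variants displayed on the E. coli surface, counted by deep sequencing, each peptide's frequency after selection divided by its frequency in the unselected input library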;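 further: frequency after pTyr selection over input frequency; kinase dosed for 20-30% of maximal phosphorylation in three min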
readout type: phosphorylation enrichment
Just the number, please.

// solved cases for phosphorylation enrichment follow
# seq string, readout type, experimental value
rows = [
    ("STKELYEKFMI", "phosphorylation enrichment", 0.409),
    ("FFIMMYTGSSV [DNAJC13_Y1131_N1135S]", "phosphorylation enrichment", 0.366),
    ("AAARPYHIQKW [ACSBG1_Y677]", "phosphorylation enrichment", 0.462),
    ("FISVGYVDGTQ [HLA-B_Y51_D54G]", "phosphorylation enrichment", 0.353),
    ("CTTIHYNHMCN [TP53_Y234_Y236H]", "phosphorylation enrichment", 0.432),
    ("CTTIHYNYMCK [TP53_Y234_N239K]", "phosphorylation enrichment", 0.547),
    ("SHLEDYPFNAE [AKR1B10_Y310]", "phosphorylation enrichment", 0.489),
    ("QKMLDYLKEKK [RYR2_Y3780]", "phosphorylation enrichment", 0.553),
]

Simply: PQGVGYPPQQQ [EP300_Y2219] , FGFR1 (UniProt P11362), phosphorylation enrichment = 0.897

Simply: PKGTGYIKTES [STAT1_Y701_L706S] , FGFR1 (UniProt P11362), phosphorylation enrichment = 0.604

Simply: EVVGRYSLHNA [MLH1_Y183_V185L] , FGFR1 (UniProt P11362), phosphorylation enrichment = 0.502

Simply: LEITWYPFDME [RIPOR2_Y316_V320M] , FGFR1 (UniProt P11362), phosphorylation enrichment = 0.698

Simply: GKFFQYDTWKQ [IGF2_Y116] , FGFR1 (UniProt P11362), phosphorylation enrichment = 0.407

Simply: ISRDVYSTDYY [NTRK2_Y702_M697I] , FGFR1 (UniProt P11362), phosphorylation enrichment = 4.9

###

# target or system: FGFR1 (UniProt P11362)
# assay method text: phosphorylation enrichment, bacterial display (enrichment ratio); higher = better substrate or ligand; peptides without Tyr show the background
Form field: phosphorylation enrichment (one value per entry).
Just the number, please.

// solved cases for phosphorylation enrichment follow
# seq string, phosphorylation enrichment
rows = [
    ("PSSRDYKHNIK [PIGN_Y227]", 0.448),
    ("GKTQQYDCKWF [BCR_Y751_YF]", 0.472),
    ("RSGIYYKPESL [L2HGDH_Y103_H98R]", 5.07),
    ("ETDSEYVKLSK [C7orf57_Y70_A74S]", 0.516),
    ("MKNQKYGRIIM [HSD17B4_Y143_K140N]", 0.433),
]

Query LVSCTYQLARR [FGFR2_Y608_G613R] yields phosphorylation enrichment of 0.788

Query YMRGMYFRMKD [PLA2G6_Y541] yields phosphorylation enrichment of 0.462

Query DENWFYTRAAS [RPS19_Y54] yields phosphorylation enrichment of 0.402

Query EVDETYVPKKF [ALB_Y521_E525K] yields phosphorylation enrichment of 0.385

Query MSRDVYSTDCY [NTRK2_Y702_Y706C] yields phosphorylation enrichment of 0.726

###

Form field: phosphorylation enrichment (one value per entry).
# Test system: c-Src
# assay method text: phosphorylation enrichment, bacterial display (enrichment ratio); higher = better substrate or ligand; peptides without Tyr show the background
Just the number, please.

// solved cases for phosphorylation enrichment follow
# seq string, phosphorylation enrichment
measured = [
    ("APQYTYAQGGQ [FLNA_Y1763]", 0.455),
    ("IPKTWYSAEQF [CD207_Y217]", 0.615),
    ("LEPHIYAVADV [MYO9A_Y216]", 2.11),
    ("TLLAFYMGNFS [GLB1_Y552_P549L]", 0.98),
    ("SNVEQYQAMVT [TPR_Y965]", 0.384),
    ("MKNQKYGRIIM [HSD17B4_Y143_K140N]", 0.301),
    ("KEDSVYGSQSV [NFKB2_Y868_A867V]", 1.35),
    ("RRESQYQENRG [LRCH3_Y354]", 0.475),
    ("SVVVPYEAPEV [TP53_Y220_P222A]", 0.405),
    ("ENQEIYQKAFD [KPNA1_Y493]", 1.45),
]

Next up:
Query DQVEQCKKELE [LMNA_Y259_Y259C] yields phosphorylation enrichment of 0.562

###

# target or system: EPHB2 (UniProt P29323)
# Sequence (P29323 whole entry, looked up): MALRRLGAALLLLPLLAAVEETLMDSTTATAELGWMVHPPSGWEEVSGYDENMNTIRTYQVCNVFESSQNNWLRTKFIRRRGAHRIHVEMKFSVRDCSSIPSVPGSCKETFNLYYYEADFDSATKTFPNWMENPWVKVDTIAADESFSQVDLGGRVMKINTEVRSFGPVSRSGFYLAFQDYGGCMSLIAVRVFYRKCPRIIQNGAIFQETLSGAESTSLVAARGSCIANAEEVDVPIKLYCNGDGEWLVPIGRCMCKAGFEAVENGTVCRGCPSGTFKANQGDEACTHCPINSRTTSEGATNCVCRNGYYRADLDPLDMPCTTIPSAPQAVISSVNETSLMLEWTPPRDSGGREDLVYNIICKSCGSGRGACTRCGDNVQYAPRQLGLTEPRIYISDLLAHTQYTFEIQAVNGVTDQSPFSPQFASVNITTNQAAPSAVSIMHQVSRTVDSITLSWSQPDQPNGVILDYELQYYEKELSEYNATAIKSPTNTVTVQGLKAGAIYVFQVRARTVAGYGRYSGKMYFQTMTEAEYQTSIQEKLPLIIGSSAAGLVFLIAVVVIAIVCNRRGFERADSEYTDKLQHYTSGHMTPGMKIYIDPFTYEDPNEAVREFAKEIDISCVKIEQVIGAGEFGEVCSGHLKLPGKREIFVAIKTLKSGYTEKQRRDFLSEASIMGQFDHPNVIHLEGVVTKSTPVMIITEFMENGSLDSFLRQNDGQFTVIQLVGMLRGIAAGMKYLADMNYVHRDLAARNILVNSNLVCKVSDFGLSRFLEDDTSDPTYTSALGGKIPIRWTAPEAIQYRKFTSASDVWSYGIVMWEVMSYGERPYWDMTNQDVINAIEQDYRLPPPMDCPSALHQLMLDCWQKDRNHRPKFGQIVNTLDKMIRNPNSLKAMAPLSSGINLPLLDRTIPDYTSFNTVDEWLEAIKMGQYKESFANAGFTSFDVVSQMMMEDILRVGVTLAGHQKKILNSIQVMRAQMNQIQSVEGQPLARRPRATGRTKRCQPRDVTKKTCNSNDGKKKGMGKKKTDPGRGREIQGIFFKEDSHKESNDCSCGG
# assay method text: phosphorylation enrichment, bacterial display (enrichment ratio); higher = better substrate or ligand; peptides without Tyr show the background
readout type: phosphorylation enrichment
Just the number, please.

// solved cases for phosphorylation enrichment follow
# seq string, target or system, phosphorylation enrichment
records = [
    ("KRLKDYLMVLQ [USP25_Y425_T427M]", "EPHB2 (UniProt P29323)", 0.545),
    ("YEDTLYTVLHR [UNC13D_Y61_A59T]", "EPHB2 (UniProt P29323)", 9.31),
]

Query HVPEEYKPKQG [SAXO2_Y37] yields phosphorylation enrichment of 0.434

Query HESEIYGKVCF [CSRP3_Y57_C58G_YF] yields phosphorylation enrichment of 0.911

Query LWQSIYNLDAE [TNNT2_Y251_E254D] yields phosphorylation enrichment of 1.18

Query RGDCTYAPLLG [AR_Y269_M268T] yields phosphorylation enrichment of 9.28

###

# target or system: Fes (UniProt P07332)
# Sequence (P07332 whole entry, looked up): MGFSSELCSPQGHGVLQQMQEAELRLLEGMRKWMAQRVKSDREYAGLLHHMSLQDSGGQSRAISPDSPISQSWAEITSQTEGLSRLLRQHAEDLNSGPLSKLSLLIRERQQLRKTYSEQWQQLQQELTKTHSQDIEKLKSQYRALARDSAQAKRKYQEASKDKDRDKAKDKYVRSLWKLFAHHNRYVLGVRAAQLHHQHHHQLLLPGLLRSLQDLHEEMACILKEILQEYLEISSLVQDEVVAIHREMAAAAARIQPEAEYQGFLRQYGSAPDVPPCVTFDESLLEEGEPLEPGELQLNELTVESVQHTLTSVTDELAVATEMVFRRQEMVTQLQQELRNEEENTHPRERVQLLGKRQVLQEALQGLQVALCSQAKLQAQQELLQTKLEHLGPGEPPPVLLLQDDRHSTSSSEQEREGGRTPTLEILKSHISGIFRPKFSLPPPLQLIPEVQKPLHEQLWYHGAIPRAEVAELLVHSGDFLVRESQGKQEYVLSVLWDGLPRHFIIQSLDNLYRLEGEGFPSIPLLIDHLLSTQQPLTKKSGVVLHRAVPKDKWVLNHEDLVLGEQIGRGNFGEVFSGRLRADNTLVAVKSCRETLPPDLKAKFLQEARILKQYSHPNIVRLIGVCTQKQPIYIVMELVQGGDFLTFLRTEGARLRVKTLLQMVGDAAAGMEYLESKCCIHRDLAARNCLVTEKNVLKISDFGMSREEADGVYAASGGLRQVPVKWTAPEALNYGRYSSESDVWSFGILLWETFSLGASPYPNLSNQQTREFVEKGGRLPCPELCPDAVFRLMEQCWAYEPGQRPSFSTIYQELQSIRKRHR
# assay method text: phosphorylation enrichment, bacterial display (enrichment ratio); higher = better substrate or ligand; peptides without Tyr show the background
Form field: phosphorylation enrichment (one value per entry).
Just the number, please.

Query DEDFLCREELA [POR_Y575_Y575C_YF] yields phosphorylation enrichment of 1.38

Query FQSKHYACIRQ [TIMP3_Y182_YF] yields phosphorylation enrichment of 0.829

###

# target or system: Jak2 (UniProt O60674)
# Sequence (O60674 whole entry, looked up): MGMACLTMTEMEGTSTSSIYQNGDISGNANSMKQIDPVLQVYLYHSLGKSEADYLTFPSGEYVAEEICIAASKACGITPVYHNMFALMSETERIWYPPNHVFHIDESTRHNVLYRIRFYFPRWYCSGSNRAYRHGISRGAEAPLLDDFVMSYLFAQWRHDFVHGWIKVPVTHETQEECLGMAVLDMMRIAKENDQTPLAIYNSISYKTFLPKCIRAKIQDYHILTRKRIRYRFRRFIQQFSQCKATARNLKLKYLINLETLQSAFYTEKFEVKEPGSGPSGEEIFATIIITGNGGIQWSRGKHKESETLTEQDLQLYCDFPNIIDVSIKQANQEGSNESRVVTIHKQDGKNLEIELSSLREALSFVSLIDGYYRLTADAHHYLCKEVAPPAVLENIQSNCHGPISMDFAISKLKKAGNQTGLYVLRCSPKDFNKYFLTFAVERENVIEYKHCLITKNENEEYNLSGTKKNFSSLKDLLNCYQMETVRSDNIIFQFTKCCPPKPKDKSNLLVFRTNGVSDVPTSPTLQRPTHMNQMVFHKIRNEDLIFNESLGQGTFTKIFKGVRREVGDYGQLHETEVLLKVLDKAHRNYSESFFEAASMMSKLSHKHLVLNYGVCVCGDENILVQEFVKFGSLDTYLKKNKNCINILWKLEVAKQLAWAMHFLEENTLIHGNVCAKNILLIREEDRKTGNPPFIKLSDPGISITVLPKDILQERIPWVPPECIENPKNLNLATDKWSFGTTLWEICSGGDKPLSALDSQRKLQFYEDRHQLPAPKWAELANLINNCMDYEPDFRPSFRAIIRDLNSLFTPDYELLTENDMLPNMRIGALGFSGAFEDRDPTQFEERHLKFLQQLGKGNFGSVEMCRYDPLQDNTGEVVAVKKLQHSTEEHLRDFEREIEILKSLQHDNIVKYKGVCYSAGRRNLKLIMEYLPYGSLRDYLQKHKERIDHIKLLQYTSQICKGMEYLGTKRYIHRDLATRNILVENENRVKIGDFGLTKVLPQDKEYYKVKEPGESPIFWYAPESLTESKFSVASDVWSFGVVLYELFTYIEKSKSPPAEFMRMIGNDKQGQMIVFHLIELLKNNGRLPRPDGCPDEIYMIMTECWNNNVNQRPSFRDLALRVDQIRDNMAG
# assay method text: phosphorylation enrichment, bacterial display (enrichment ratio); higher = better substrate or ligand; peptides without Tyr show the background
readout type: phosphorylation enrichment
Just the number, please.

// solved cases for phosphorylation enrichment follow
# seq string, phosphorylation enrichment
rows = [
    ("VVTFSYKPPGN [RBL2_Y544]", 0.911),
    ("FSQETYFRVSN [ABCD1_Y180_Q178E_YF]", 3),
    ("DEDFLCREELA [POR_Y575_Y575C_YF]", 1.33),
    ("SDGHEYIYVDP [PDGFRB_Y579]", 1.62),
    ("CCKNRYDKDKP [THAP1_Y14_G9C]", 0.429),
]

Query IDSTPYGQWFE [RPS8_Y109_R110G_YF] yields phosphorylation enrichment of 0.998

Query NVFGNYNQQPS [HNRNPA2B1_Y306_D302V] yields phosphorylation enrichment of 0.687

Query SCPANYFAFKI [FAM3D_Y65_P60S] yields phosphorylation enrichment of 5.24

Query TFEPNYGTVKR [RAPGEF6_Y1447_Q1452R_YF] yields phosphorylation enrichment of 0.497

Query GRRNTCFASIA [ACADM_Y352_Y352C_YF] yields phosphorylation enrichment of 0.711

Query IATAIYSGDKI [UGGT2_Y823] yields phosphorylation enrichment of 0.6

Query AIMSFYAALIN [RYR1_Y2426_D2431N] yields phosphorylation enrichment of 1.06

Query EYFDGYWEYSV [ITGA2B_Y265_G267E] yields phosphorylation enrichment of 5.73

###

# target or system: EPHB1 (UniProt P54762)
# Sequence (P54762 whole entry, looked up): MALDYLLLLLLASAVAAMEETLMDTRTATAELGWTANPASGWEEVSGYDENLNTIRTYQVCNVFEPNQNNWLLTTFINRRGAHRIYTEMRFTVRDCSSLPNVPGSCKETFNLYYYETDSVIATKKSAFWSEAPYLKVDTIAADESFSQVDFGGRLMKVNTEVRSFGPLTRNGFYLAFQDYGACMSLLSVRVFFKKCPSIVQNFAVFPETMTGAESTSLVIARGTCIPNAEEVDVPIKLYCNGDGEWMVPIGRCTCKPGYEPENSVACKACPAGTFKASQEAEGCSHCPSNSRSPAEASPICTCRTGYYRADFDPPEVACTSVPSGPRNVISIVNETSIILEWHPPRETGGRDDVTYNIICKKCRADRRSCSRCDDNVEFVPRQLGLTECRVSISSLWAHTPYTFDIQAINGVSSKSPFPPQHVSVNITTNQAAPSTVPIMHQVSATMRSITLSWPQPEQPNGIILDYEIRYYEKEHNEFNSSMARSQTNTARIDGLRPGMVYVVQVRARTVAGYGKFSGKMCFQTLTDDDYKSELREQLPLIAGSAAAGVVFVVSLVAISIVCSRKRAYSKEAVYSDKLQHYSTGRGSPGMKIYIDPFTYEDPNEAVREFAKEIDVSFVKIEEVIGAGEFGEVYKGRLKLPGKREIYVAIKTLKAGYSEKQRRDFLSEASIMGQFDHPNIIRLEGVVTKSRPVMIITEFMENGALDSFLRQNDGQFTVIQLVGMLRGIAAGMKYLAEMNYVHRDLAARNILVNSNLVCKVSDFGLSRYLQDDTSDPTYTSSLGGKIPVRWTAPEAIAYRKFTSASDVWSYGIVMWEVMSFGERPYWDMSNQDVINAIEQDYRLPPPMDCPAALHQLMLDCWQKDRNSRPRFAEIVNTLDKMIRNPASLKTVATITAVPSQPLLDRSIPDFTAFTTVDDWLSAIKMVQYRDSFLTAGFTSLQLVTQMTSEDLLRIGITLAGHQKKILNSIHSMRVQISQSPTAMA
# assay method text: phosphorylation enrichment, bacterial display (enrichment ratio); higher = better substrate or ligand; peptides without Tyr show the background
readout type: phosphorylation enrichment
Just the number, please.

# seq string, phosphorylation enrichment
data = [
    ("CTTIHYNCMCN [TP53_Y234_Y236C]", 0.591),
]

Query AGITAYQSCLQ [ADGRA2_Y377] yields phosphorylation enrichment of 0.685

Query MAFDRYVAICS [OR8D4_Y123_C120Y_YF] yields phosphorylation enrichment of 0.905

Query NQELIYEGRRL [TBK1_Y354] yields phosphorylation enrichment of 0.518

Query LGLTVYADCLA [ABCA4_Y2063] yields phosphorylation enrichment of 0.686

Query DVMDLYKTLRG [NR3C1_Y30_F29L] yields phosphorylation enrichment of 0.483

Query RVKTPYSLKRW [BMPR2_Y979] yields phosphorylation enrichment of 0.608

Query FGSLLYKYAFK [FANCD2_Y458] yields phosphorylation enrichment of 0.468

Query NNIDYYKKTTN [FGFR2_Y657] yields phosphorylation enrichment of 0.543

Query FFDANCDGKEF [MAPRE2_Y162_Y162C_YF] yields phosphorylation enrichment of 0.573

Query DENWFYTRPAS [RPS19_Y54_A57P] yields phosphorylation enrichment of 0.59

Query ARGMEYLASQK [FGFR2_Y616] yields phosphorylation enrichment of 0.376

Query SLNEGYARDFD [FBP1_Y216] yields phosphorylation enrichment of 0.505

Query TRVMEYISCLD [CLTCL1_Y1043_R1046C] yields phosphorylation enrichment of 0.661
